Molecular target: human sphingosine-1-phosphate receptor 1 (S1P1) (Homo sapiens)
Assay: Inhibition of cAMP production (HTRF cAMP HiRange), S1P1 CHO-K1 cells
Assay type: cell-based
Details: inhibition of cAMP production; potency; read-out: hS1P1 CAMP pEC50 (converted)
Sequence (P21453 whole entry): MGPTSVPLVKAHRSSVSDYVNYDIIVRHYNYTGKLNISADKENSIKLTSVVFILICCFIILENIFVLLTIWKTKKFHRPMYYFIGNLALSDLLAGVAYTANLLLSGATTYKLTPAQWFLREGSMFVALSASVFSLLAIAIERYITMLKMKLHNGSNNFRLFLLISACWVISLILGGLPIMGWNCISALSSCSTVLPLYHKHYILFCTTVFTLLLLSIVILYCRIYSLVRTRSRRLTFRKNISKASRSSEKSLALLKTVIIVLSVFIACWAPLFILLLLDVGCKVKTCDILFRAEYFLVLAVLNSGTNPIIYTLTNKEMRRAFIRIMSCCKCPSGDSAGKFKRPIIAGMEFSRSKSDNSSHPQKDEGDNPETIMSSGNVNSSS
Each entry below carries its recorded EC50.

// query May I ask what EC50 has been recorded for COc1cc(-c2nc(-c3ccc4c(c3)nnn4C(C)C)no2)ccn1 ?
// result > 0.316 µM

// query May I ask what EC50 has been recorded for CCC1(CC)CC(=O)c2cc(-c3nc(-c4ccc(C(N)=O)cc4)no3)ccc2O1 ?
// result < 0.316 µM

// query May I ask what EC50 has been recorded for CCC1(CC)CC(=O)c2cc(-c3nc(-c4ccnc(F)c4)no3)ccc2O1 ?
// result < 0.316 µM

// query May I ask what EC50 has been recorded for COc1ccccc1-c1nc(-c2ccc3c(c2)nnn3C(C)C)no1 ?
// result < 0.316 µM

// query May I ask what EC50 has been recorded for FC(F)(F)c1cc(-c2noc(-c3ccc4c(c3)nnn4C3CC3)n2)ccc1OCc1ccccc1 ?
// result > 0.316 µM

// query May I ask what EC50 has been recorded for CC(C)c1ccc(-c2nc(-c3ccc4c(c3)nnn4C(C)C)no2)cn1 ?
// result > 0.316 µM

// query May I ask what EC50 has been recorded for CC(C)n1nnc2cc(-c3nc(-c4ccc(Oc5ccccc5)cc4)no3)ccc21 ?
// result > 0.316 µM

// query May I ask what EC50 has been recorded for Brc1ccccc1-c1nc(-c2ccc3c(c2)nnn3C2CCCCC2)no1 ?
// result < 0.316 µM

// query May I ask what EC50 has been recorded for N#Cc1cc(-c2nnc(-c3ccc4[nH]cnc4c3)o2)ccc1NCC1CC1 ?
// result < 0.316 µM

// query May I ask what EC50 has been recorded for CC(C)n1nnc2cc(-c3noc(-c4cnccn4)n3)ccc21 ?
// result > 0.316 µM

// query May I ask what EC50 has been recorded for CC(C)n1ccc2cc(-c3nc(-c4cccc5c4OCCC5)no3)ccc21 ?
// result > 0.316 µM

// query May I ask what EC50 has been recorded for Cc1ccccc1-c1noc(-c2ccc3c(cnn3C(C)C)c2)n1 ?
// result < 0.316 µM

----------
Target: human sphingosine-1-phosphate receptor 1 (S1P1) (Homo sapiens, UniProt P21453)
Assay: β-Arrestin2 recruitment assay (PathHunter), S1P1 CHO-K1 cells
Type: cell-based
Details: β-arrestin2 recruitment; potency; read-out: hS1P1 B-arrestin2 pEC50 (converted)
Sequence (P21453 whole entry): as above
Sequence (P32121 whole entry partner): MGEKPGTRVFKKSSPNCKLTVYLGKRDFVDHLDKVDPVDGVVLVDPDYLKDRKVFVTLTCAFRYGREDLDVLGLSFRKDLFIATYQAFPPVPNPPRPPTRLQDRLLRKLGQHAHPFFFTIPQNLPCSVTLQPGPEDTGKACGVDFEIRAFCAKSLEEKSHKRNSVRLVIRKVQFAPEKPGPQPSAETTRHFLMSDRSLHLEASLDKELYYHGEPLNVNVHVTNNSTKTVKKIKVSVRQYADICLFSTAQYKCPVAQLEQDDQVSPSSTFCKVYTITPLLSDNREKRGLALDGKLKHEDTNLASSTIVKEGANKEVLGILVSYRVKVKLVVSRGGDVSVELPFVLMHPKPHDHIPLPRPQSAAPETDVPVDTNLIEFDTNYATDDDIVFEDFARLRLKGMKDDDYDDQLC
Each entry below carries its recorded EC50.

>  <MOLECULE>
CCC1(CC)CC(=O)c2cc(-c3nc(-c4ccccc4Cl)no3)ccc2O1

>  <RESULT>
< 10 µM

$$$$
>  <MOLECULE>
Cc1ccccc1-c1noc(-c2ccc3c(c2)CCC(=O)N3)n1

>  <RESULT>
< 10 µM

$$$$
>  <MOLECULE>
CC(C)Oc1ccc(-c2nc(-c3ccc4c(c3)nnn4C(C)C)no2)cc1C(F)(F)F

>  <RESULT>
< 10 µM

$$$$
>  <MOLECULE>
Cc1ccsc1-c1noc(-c2ccc3c(c2)nnn3C2CCCC2)n1

>  <RESULT>
< 10 µM

$$$$
>  <MOLECULE>
CCC1(CC)CC(=O)c2cc(-c3nsc(-c4ccccc4OC)n3)ccc2O1

>  <RESULT>
< 10 µM

$$$$
>  <MOLECULE>
C=CCn1nc2ccc(-c3nc(-c4ccccc4)no3)cc2n1

>  <RESULT>
> 10 µM

$$$$

// query May I ask what EC50 has been recorded for Brc1ccccc1-c1nc(-c2ccc3c(c2)nnn3Cc2ccncc2)no1 ?
// result > 10 µM

// query May I ask what EC50 has been recorded for C=CCNc1ccc(-c2nc(-c3ccc4[nH]c(=O)oc4c3)no2)cc1C#N ?
// result < 10 µM

// query May I ask what EC50 has been recorded for Cc1cc(-c2nc(-c3ccc4c(c3)nnn4C(C)C)no2)cnc1C ?
// result > 10 µM

// query May I ask what EC50 has been recorded for c1ccc(-c2noc(-c3ccc4[nH]nnc4c3)n2)cc1 ?
// result > 10 µM

// query May I ask what EC50 has been recorded for CCC1(CC)CC(=O)c2cc(-c3nc(-c4ccc5c(c4)nnn5C(C)C)ns3)ccc2O1 ?
// result > 10 µM
